We begin with a simple list: items and their reported growth inhibition.
# assay_overview: Restrictive medium S. cerevisiae growth inhibition, OD615, pilot screen of yeast lifespan reduction project, restrictive growth control (AID 706);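 note: modified DeaD lifespan yeast strain shifted to restrictive glucose medium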
# condition_summary: OD615, 48 h, at 10 µM, stronger effect = higher value
Only the number, expressed in %, is required.

compound	unit	growth inhibition
CC(C)N(Cc1nc(-c2ccccc2)no1)S(=O)(=O)c1ccccc1	%	-9.29
O=C(c1ccccc1)c1cccc(NC(=O)c2ccco2)c1	%	-5.33
Cn1cc(S(=O)(=O)CC(=O)Nc2ccc3c(c2)OCO3)c2ccccc21	%	4.48
Cc1noc(C)c1S(=O)(=O)N(CC(=O)Nc1ccc2c(c1)OCCO2)c1ccc(C(C)C)cc1	%	-5.11

Would you mind telling me what growth inhibition value was observed for COc1ccc(CCNC(=O)c2c(O)c3c([nH]c2=O)CCCC3)cc1 ? -15.2

Would you mind telling me what growth inhibition value was observed for CCc1cc(=O)oc2cc(OCC(=O)N(CC)CC)c(Cl)cc12 ? -5.33

Would you mind telling me what growth inhibition value was observed for O=C(NCC1CCCO1)c1ccc2c(=O)n(CCc3ccccc3)c(=O)[nH]c2c1 (centres undefined) ? -27

Would you mind telling me what growth inhibition value was observed for CC(=O)NCC(=O)NC1(C(=O)NC2CCCC2)CCCCC1 ? -24.5

Would you mind telling me what growth inhibition value was observed for COc1ccccc1NC(=O)CSc1nnc(C)o1 ? -9.04

* * *

# assay_overview: growth suppression of beta-catenin knockout HCT116, pilot screen, human colon tumor cells (AID 823);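 note: 0% = wells killed by 20 µM Hyamine and 100% = untreated DMSO cell wells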
# condition_summary: CellTiter-Glo, 60 h, at 10 µM, stronger effect = lower value
Inconclusive results are not listed.
parameter_measured: viability (%)
Only the number, expressed in %, is required.

A selection of reference data follows.
compound	parameter_measured	numeric_readout
CCOc1ccc(C2CC(=O)NC(SCC(=O)OC)=C2C#N)cc1 (centres undefined)	viability	102
CCc1nnc(NC(=O)c2ccc(OC)cc2OC)s1	viability	109
CC1CCN(CCCn2c(=S)[nH]c3ccccc3c2=O)CC1	viability	91.3
Cc1onc(-c2ccccc2)c1C(=O)Nc1ccccc1C#N	viability	97.3
CCCOc1nc2c(c(=O)n(C)c(=O)n2C)n1CCC	viability	82.2

Would you mind telling me what viability value was observed for O=C(O)CCCC(=O)Nc1ccccc1Br ? 104

Would you mind telling me what viability value was observed for CCOC(=O)CSc1nnc(CSc2nc3sc4c(c3c(=O)[nH]2)CCC4)n1C ? 98.4

Would you mind telling me what viability value was observed for OC(C#CCN1CCCC1)c1ccccc1 (centres undefined) ? 91.6

Would you mind telling me what viability value was observed for COc1ccc(S(=O)(=O)Cc2ccc(C(=O)NC3CCCC3)o2)cc1 ? 108

Would you mind telling me what viability value was observed for O=C(c1ccc(-c2ccccc2)cc1)N1CCCC1 ? 94.9

* * *

# assay_overview: RAM signaling pathway blockade in yeast – S. cerevisiae, Pdr1DBD-CYC8 efflux-inhibited sensitized strain, primary screen (AID 1298);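 note: 0% = DMSO untreated cells without growth and 100% = 10 µM 1-NA-PP1 full growth; higher means more yeast growth rescued from 5-FOA killing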
# condition_summary: S. cerevisiae cbk1-as DSE1-URA3 strain, 5-FOA growth OD615, 2 d; at 50 µM; stronger effect = higher value
Active and inactive are the calls of the source.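 How the source made its calls: active means RAM network inhibition above 8.4% in each of two replicates, 3 SD over the compound average; inconclusive means above 8.4% inhibition in only one replicate; inactive means 8.4% inhibition or less in each replicate.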
parameter_measured: RAM network inhibition

compound	RAM network inhibition
Cc1noc(C(=O)Nc2sc3c(c2C#N)CCC3)c1Cl	2.59% (inactive)
CCN(CC)S(=O)(=O)c1cc(C(=O)Nc2ccc(Cl)cn2)ccc1C	-0.26% (inactive)
O=C(Nc1ncc(Br)s1)C(Cc1ccccc1)n1cccc1 (stereo not given)	-0.21% (inactive)
COC(=O)c1ccc(NC(=O)CNC(=O)C2CCCCC2)cc1	1.94% (inactive)
CCOC(=O)CSc1nc(N)nc(C)c1Br	0.51% (inactive)
COc1ccc(OC)c(C2CC(=O)N3CN(c4ccccc4F)CSC3=C2C#N)c1 (stereo not given)	8.39% (inactive)
CCc1nc2oc(C(=O)c3ccccc3)c(N)c2c2c1COC(C)(C)C2	0.85% (inactive)
Cc1nc2c3ccccc3n(CC#N)c(=O)n2n1	0.21% (inactive)
CCN(CC)S(=O)(=O)c1ccc(C(=O)Nc2nnc(C(C)C)s2)cc1	4.27% (inactive)
CCOc1cc(N2CCOCC2)c(OCC)cc1NC(=O)c1cc(-c2ccco2)nc2ccccc12	6.51% (inactive)

Would you mind telling me what RAM network inhibition value was observed for Cc1ccc(C)c(N(C)S(=O)(=O)c2cccc3nsnc23)c1 ? 7.63% (inactive)

Would you mind telling me what RAM network inhibition value was observed for O=C(COC(=O)c1cc2ccccc2o1)c1ccccc1 ? 2.95% (inactive)

Would you mind telling me what RAM network inhibition value was observed for Brc1ccc(-c2nnc(-c3ccccc3Br)o2)cc1 ? 11.3% (inactive)

Would you mind telling me what RAM network inhibition value was observed for COC(=O)c1ccccc1NC(=O)CS(=O)(=O)Cc1nc(-c2ccc(C)cc2)oc1C ? 4.03% (inactive)

Would you mind telling me what RAM network inhibition value was observed for O=C(CCC1CCCC1)c1c(O)c2ccccc2oc1=O ? -1.56% (inactive)
